Provide the recorded composite z-score for the entries that follow.
assay: binders of probe aHhip on microarray, primary screen, stem cell growth factor project, biochemical, small-molecule microarray, fluorescence 635/667 (AID 1087); settings: higher = more signal;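 note: score merges spot fluorescence at 667nm with spot signal to noise ratio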
Lab note: jot the number down without any unit.

In: Dear colleague, please send me the reported composite z-score for `COC(=O)C[C@H]1O[C@]2(C(=O)N(C)c3ccccc32)[C@@H](C)[C@@H]1[Si](C)(C)F` when you can.
Out: 0.141

In: Dear colleague, please send me the reported composite z-score for `C=C[C@@H](COC(=O)OC(C)(C)C)N(Cc1ccc(OC)cc1)S(=O)(=O)c1ccc(Br)cc1` when you can.
Out: 0.0505

In: Dear colleague, please send me the reported composite z-score for C=CCC(OC(C)=O)[C@@H]1[C@@H](N(Cc2ccc(-c3ccccc3)cc2)C(=O)c2cccc3ccccc23)c2cc(OCCCO)ccc2N1C(=O)c1ccc(-c2ccccc2)cc1 (some centres undefined) when you can.
Out: -0.0006

In: Dear colleague, please send me the reported composite z-score for `COc1ccc(/C=C/C=O)cc1` when you can.
Out: 0.0975

In: Dear colleague, please send me the reported composite z-score for `O=C1O[C@H](c2ccccc2)[C@H](c2ccccc2)N2[C@H]1[C@@H](C(=O)N1CCCCCCC1)[C@]1(C(=O)Nc3ccc(C#CCCO)cc31)[C@H]2c1ccccc1OCCO` when you can.
Out: 4.26

In: Dear colleague, please send me the reported composite z-score for `COC(=O)[C@@]1(Cc2ccc(OC)cc2)[C@H]2c3cc(C(=O)N4CCCC4)n(CCN4CNCC4=O)c3C[C@H]2CN1C(=O)c1ccccc1` when you can.
Out: 3.13

In: Dear colleague, please send me the reported composite z-score for `Cc1ccc(N2C(=O)c3ccccc3[C@@H](C(=O)NC3CC3)[C@@H]2c2ccc(CO)cc2)nc1` when you can.
Out: -0.134

In: Dear colleague, please send me the reported composite z-score for `CC(C)CNC(=O)[C@@]1(Cc2ccccc2I)c2ccccc2C(=O)N(C2CCCCC2)[C@H]1c1ccc(CO)cc1` when you can.
Out: 0.702

In: Dear colleague, please send me the reported composite z-score for `NC(=O)NCC#Cc1ccc2c(c1)[C@]1(C(=O)N2)[C@H](C(N)=O)[C@H]2C(=O)O[C@H](c3ccccc3)[C@H](c3ccccc3)N2[C@@H]1c1ccc(O)cc1` when you can.
Out: 1.15

In: Dear colleague, please send me the reported composite z-score for `COCCCNC(=O)[C@]1(CCC(=O)OC(C)(C)C)N=C(c2ccc(OCCCO)cc2)O[C@@H]1c1ccccc1CN=[N+]=[N-]` when you can.
Out: 0.107

In: Dear colleague, please send me the reported composite z-score for `COc1cc2c(cc1OC)CN(C(=O)[C@@H]1[C@H]3C(=O)O[C@H](c4ccccc4)[C@H](c4ccccc4)N3[C@H](c3ccc(O)cc3)[C@@]13C(=O)Nc1ccccc13)CC2` when you can.
Out: 0.0854

In: Dear colleague, please send me the reported composite z-score for `CC(C)N1C(=O)[C@@]2(Cc3ccccc31)c1ccccc1C(=O)N(Cc1ccccc1Cl)[C@H]2c1ccc(CO)cc1` when you can.
Out: -0.319

In: Dear colleague, please send me the reported composite z-score for `C=CCNC(=O)[C@H]1[C@@H]2C(=O)O[C@@H](c3ccccc3)[C@@H](c3ccccc3)N2[C@@H](c2ccccc2OCCO)[C@]12C(=O)Nc1ccc(C#CCC(C(=O)OC)C(=O)OC)cc12` when you can.
Out: 0.409

In: Dear colleague, please send me the reported composite z-score for `C=CCNC(=O)[C@@H]1[C@H]2C(=O)O[C@H](c3ccccc3)[C@H](c3ccccc3)N2[C@H](c2ccc(O)cc2)[C@@]12C(=O)N(C(=O)OCCOC)c1ccc(C#CCNC(N)=O)cc12` when you can.
Out: -0.311

###

Provide the recorded composite z-score for the entries that follow.
test: small-molecule microarray binders of probe aLefty2, primary screen, biochemical, biotinylated probe, 635/667 nm fluorescence (AID 1094); conditions: higher = more signal;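 note: score merges spot fluorescence near 667 nm with spot signal-to-noise ratio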
Lab note: jot the number down without any unit.

In: Dear colleague, please send me the reported composite z-score for `CO[C@H]1O[C@H](CO)[C@@H](OC(=O)Nc2ccccc2)[C@H](OC(=O)Nc2ccccc2)[C@@H]1OC(=O)Nc1ccccc1` when you can.
Out: 0.232

In: Dear colleague, please send me the reported composite z-score for `C=CCNC(=O)[C@H]1[C@@H]2C(=O)O[C@@H](c3ccccc3)[C@@H](c3ccccc3)N2[C@@H](c2ccccc2OCCO)[C@]12C(=O)Nc1ccc(C#CCCO)cc12` when you can.
Out: -0.0617

In: Dear colleague, please send me the reported composite z-score for `CCOC(=O)C[C@H]1[C@H](OC(=O)c2ccc(C(=O)c3ccccc3)cc2)[C@@H](NC(=O)c2ccc3ccccc3n2)c2cc(OCCCO)ccc2N1C(=O)c1ccccc1` when you can.
Out: -0.025

In: Dear colleague, please send me the reported composite z-score for COc1cc(NN2C(C(O)c3ccco3)C=CC3C(=O)N(c4ccccc4)C(=O)C32)cc(OC)c1OC (centres undefined) when you can.
Out: -0.2

In: Dear colleague, please send me the reported composite z-score for C=CCC(OC(C)=O)[C@@H]1[C@@H](N(Cc2cccc3ccccc23)C(=O)c2ccc(-c3ccccc3)cc2)c2cc(OCCCO)ccc2N1C(=O)c1ccc2ccccc2c1 (some centres undefined) when you can.
Out: -0.0174

In: Dear colleague, please send me the reported composite z-score for `COC(=O)c1c(CC[C@@H](CO)NC(=O)NCCn2cc(C3(O)CCCC3)nn2)oc(C(C)=O)c1C(=O)OC` when you can.
Out: -0.23

In: Dear colleague, please send me the reported composite z-score for `CC#CC(=O)Oc1ccccc1C=CC(=O)OCC` when you can.
Out: -0.0549

In: Dear colleague, please send me the reported composite z-score for `COCCOC(=O)N1C(=O)[C@@]2(c3cc(C#CCC(C(=O)OC)C(=O)OC)ccc31)[C@H](c1ccccc1OCCO)N1[C@H](c3ccccc3)[C@H](c3ccccc3)OC(=O)[C@H]1[C@@H]2C(=O)NC[C@H](O)c1ccccc1` when you can.
Out: 0.032

In: Dear colleague, please send me the reported composite z-score for CC1CC/C=C\[C@H]2OC34C=CCN(C(C)(C)C)C(=O)[C@H]3N(CCO)C(=O)[C@@H]4C2C(=O)O1 (some centres undefined) when you can.
Out: -0.0589

In: Dear colleague, please send me the reported composite z-score for `Cc1ccc(S[C@]2(C(=O)O)CC(=O)N(C(C)C)[C@@H]2c2ccc(CO)cc2I)cc1` when you can.
Out: 0.122

In: Dear colleague, please send me the reported composite z-score for `Cc1nc2cc(Br)ccc2c(=O)o1` when you can.
Out: -0.082

In: Dear colleague, please send me the reported composite z-score for NC(=O)N1C(=O)C2C(C1=O)C1C=C(c3ccc(CO)cc3)C2C(c2cccs2)N1Cc1cccc(OC(F)(F)F)c1 (centres undefined) when you can.
Out: 0.181

In: Dear colleague, please send me the reported composite z-score for `CC(C)C(=C=CC[C@@H](O)c1ccc(OCCO)cc1)C[C@@H](O)c1ccccn1` when you can.
Out: -0.235

In: Dear colleague, please send me the reported composite z-score for `COC(=O)[C@@]1(Cc2ccccc2)[C@H]2c3cc(C(=O)N(C)C)n(Cc4ccsc4Br)c3C[C@H]2CN1C(=O)c1ccccc1` when you can.
Out: 0.313

In: Dear colleague, please send me the reported composite z-score for `CCCC[C@@H]1C[C@H]1[C@@H](NC(=O)c1ccco1)c1ccccc1C(F)(F)F` when you can.
Out: 1.36

In: Dear colleague, please send me the reported composite z-score for C=CCC(OC(C)=O)[C@@H]1[C@@H](N(Cc2ccc(-c3ccccc3)cc2)C(=O)c2ccc(-c3ccccc3)cc2)c2cc(OCCCO)ccc2N1C(=O)Cc1ccc2ccccc2c1 (some centres undefined) when you can.
Out: -0.119

In: Dear colleague, please send me the reported composite z-score for `O=C1C[C@]2(c3ccc([N+](=O)[O-])cc3)C(=O)N(CC(F)(F)F)c3cc(CO)ccc3[C@H]2N1C1CCCCC1` when you can.
Out: -0.216

In: Dear colleague, please send me the reported composite z-score for `COc1ccc([Si](C)(C)[C@@H]2[C@@H](CCO)O[C@]3(C(=O)N(Cc4ccc(N(C=O)c5ccccc5)cc4)c4ccccc43)[C@H]2C)cc1` when you can.
Out: 0.122

In: Dear colleague, please send me the reported composite z-score for Cc1ccccc1C(O)C1C=CC2C(=O)N(c3ccccc3)C(=O)C2N1Nc1ccc(C(C)C)cc1 (centres undefined) when you can.
Out: -0.0675

In: Dear colleague, please send me the reported composite z-score for `Cc1ccc(S[C@]2(C(=O)NCCCN(C)C)CC(=O)N(Cc3ccccc3C(F)(F)F)[C@@H]2c2ccc(CO)cc2)cc1` when you can.
Out: 0.0446

In: Dear colleague, please send me the reported composite z-score for `NC(=O)NCC#Cc1ccc2c(c1)[C@]1(C(=O)N2)[C@H](C(N)=O)[C@H]2C(=O)O[C@H](c3ccccc3)[C@H](c3ccccc3)N2[C@@H]1c1ccc(O)cc1` when you can.
Out: 0.411

In: Dear colleague, please send me the reported composite z-score for CC1(C)[C@@H]2CC(C(O)C3C=CC4C(=O)N(c5ccccc5)C(=O)C4N3Nc3ccc([N+](=O)[O-])cc3)=C[C@H]1C2 (some centres undefined) when you can.
Out: 0.109

In: Dear colleague, please send me the reported composite z-score for [N-]=[N+]=NCc1ccccc1[C@@H]1OC(c2ccc(OCCCO)cc2)=N[C@]1(Cc1ccccc1)C(=O)NCC(O)CO (some centres undefined) when you can.
Out: 0.414

In: Dear colleague, please send me the reported composite z-score for `CO[C@H]1O[C@H](CO)[C@@H](OC(=O)Nc2cccc(F)c2)[C@H](OC(=O)Nc2ccccc2)[C@@H]1OC(=O)Nc1ccccc1` when you can.
Out: 0.182

In: Dear colleague, please send me the reported composite z-score for `COC(=O)[C@@]1(CCS(=O)(=O)c2ccccc2)N=C(c2ccc(OCCCO)cc2)O[C@H]1c1ccccc1CN=[N+]=[N-]` when you can.
Out: 0.0054

In: Dear colleague, please send me the reported composite z-score for [N-]=[N+]=Nc1ccccc1[C@H]1OC(c2ccc(OCCCO)cc2)=N[C@@]1(CCS(=O)(=O)c1ccccc1)C(=O)NCC(O)CO (some centres undefined) when you can.
Out: 0.207

In: Dear colleague, please send me the reported composite z-score for CN1C(=O)C2C=CC(C(O)c3ccc([N+](=O)[O-])cc3)N(N3CCCCC3)C2C1=O (centres undefined) when you can.
Out: 0.347

In: Dear colleague, please send me the reported composite z-score for `CCOC(=O)C[C@H]1[C@H](OC(=O)c2cc3ccccc3oc2=O)[C@@H](NC(=O)c2ccccc2)c2cc(OCCCO)ccc2N1C(=O)c1ccc2ccccc2n1` when you can.
Out: -0.193

In: Dear colleague, please send me the reported composite z-score for O=C(NCCN1CCOCC1)C1N=C(c2ccc(OCCCO)cc2)N(c2ccccc2)O1 (centres undefined) when you can.
Out: 0.443
